- Test system: SNB-75 CNS
- method.description: NCI-60 one-dose screen, 48 h (100 = growth as untreated, 0 = no growth, -100 = all killed)
- condition.label: 10 µM unless noted
This is part of a sample that, as a whole, favours compounds with a hit. Of some 83,000 tested, about 20% had one in any assay.
Short version: growth at least 50% is Y, less is N.

Examples with answers:
compound	class.assignment
CC(C)N1C(=O)/C(=c2\sc3n(c2=O)C2C(NN=3)N(C)C(=O)N2C)c2ccccc21 (centres undefined)	N
CCN1CCN(CC(=O)Nc2ccc(-c3cn4c(n3)sc3cc(Oc5ccnc(C(=O)NC)c5)ccc34)cc2)CC1	Y
O=C(CCCCCCN1CC(=O)N2[C@H](c3ccc(Cl)cc3)c3[nH]c4ccccc4c3C[C@@H]2C1=O)NO	N
O=C(Cc1ccccc1)Nc1cccc(N=Cc2ccccc2O)c1	Y

Could you tell me if the measured growth of "CCc1ccc(CCC(=O)Nc2ncc(Cc3cc(Cl)ccc3Cl)s2)o1" reaches 50% or more?
N

Could you tell me if the measured growth of "CC1(C)CC[C@]2(C(=O)N[C@H](CO)Cc3ccccc3)CC[C@]3(C)C(=CC[C@@H]4[C@@]5(C)CCCNC(C)(C)[C@@H]5CC[C@]43C)[C@@H]2C1" reaches 50% or more?
Y

Could you tell me if the measured growth of "COC(=O)/C=C1/SC(=Nc2ccc([N+](=O)[O-])cc2)N(CCc2c[nH]c3ccc(O)cc23)C1=O" reaches 50% or more?
Y

* * *

- Tested on: HS 578T breast
- method.description: NCI-60 one-dose screen, 48 h (100 = growth as untreated, 0 = no growth, -100 = all killed)
- condition.label: 10 µM unless noted
- Description: Growth inhibition of the HS 578T human tumor cell line is measured as a screen for anti-cancer activity. Cells are grown in 96 well plates and exposed to the test compound for 48 hours. Compounds are tested at a single concentration, which is 10^-5 M for most compounds. The reported endpoint is percent growth (GI% or GIPRCNT), where numbers from 0 - 100% represent growth inhibition, and numbers from -100% - 0 represent cell death. For example, a value of 40 represents 60% growth inhibition. […]
The panel holds about 83,000 compounds, 20% with a hit somewhere; the sample as a whole holds those more often.
growth strictly under 70% means True; at 70% or over means False.

Examples with answers:
compound	measured.on	class.assignment
CCN(CC)CCCOc1ccc2ncnc(Nc3ccc(Oc4cccc(C(F)(F)F)c4)c(Cl)c3)c2c1	HS 578T breast	True
CCOC(=O)C(=Cc1ccc(-c2ccccc2)cc1)C(=O)OCC	HS 578T breast	True
CCN(CC)CCN1C(=O)c2c(c(C)c3c(oc4ccc(OC)cc43)c2C)C1=O	HS 578T breast	False
CN(C)c1ccc(/C=C(\C#N)c2cc3ccccc3[nH]2)cc1	HS 578T breast	True

Please let me know if "COc1cc(-c2nc3c(ncc4ccc(=O)n(-c5ccccc5)c43)s2)cc(OC)c1OC" shows growth below 70%.
True

Please let me know if "COc1ccc2c(c1)c(-c1nc(-c3c[nH]c4ncccc34)cs1)cn2CCCN1CCOCC1" shows growth below 70%.
True

Please let me know if "Cc1ccc(C=C2C(=O)NC(=O)NC2=O)cc1" shows growth below 70%.
False

Please let me know if CN(C)CCCC1(c2ccc(F)cc2)OCc2cc(-c3cc4ccccc4s3)ccc21 (stereo unspecified) shows growth below 70%.
True

Please let me know if CC(C)CCN(CCC(C)C)CC(O)c1cc2c(c3ccccc13)CCCC2 (stereo unspecified) shows growth below 70%.
False

Please let me know if Cc1ccc(C2CC(c3nc(-c4ccc(Cl)cc4)oc3C)=NN2C(=O)c2ccncc2)cc1 (stereo unspecified) shows growth below 70%.
False

Please let me know if OCCNCCNC(Cc1ccc(Cl)cc1)c1ccccc1 (stereo unspecified) shows growth below 70%.
False

Please let me know if "O=C(/C=C/c1ccc(Cl)cc1)c1cccc(OCCCOc2cccc(C(=O)/C=C/c3ccc(Cl)cc3)c2)c1" shows growth below 70%.
False

Please let me know if "Cc1ccnc(Nc2ccc([N+](=O)[O-])c(NCCN3CCOCC3)n2)c1" shows growth below 70%.
True

Please let me know if "Nc1ccc(-c2csc(-n3[nH]c(=O)ccc3=O)n2)cc1" shows growth below 70%.
False

Please let me know if CCOC(=O)c1nn(CC(O)c2ccccc2)c(NC(=O)Nc2cccc(F)c2)c1C (stereo unspecified) shows growth below 70%.
False

Please let me know if Cc1nn(-c2cc(NC3CCC(O)CC3)c3c(=O)[nH]c(CCC(F)(F)F)cc3c2)c2c1C(=O)CC(C)(C)C2 (stereo unspecified) shows growth below 70%.
True

Please let me know if "C=CCN1C(=O)c2cccc3c(N4CCOCC4)ccc(c23)C1=O" shows growth below 70%.
True

Please let me know if "COC(=O)CC[C@@H]1O[C@@H](c2ccc(F)cc2)[C@@H](O)[C@H]1O" shows growth below 70%.
False

* * *

Consider the following compounds and their measured growth readings.
- Tested on: UACC-62 melanoma
- method.description: NCI-60 one-dose screen, 48 h (100 = growth as untreated, 0 = no growth, -100 = all killed)
- condition.label: 10 µM unless noted
The panel holds about 83,000 compounds, 20% with a hit somewhere; the sample as a whole holds those more often.
Express the result in % but write the number alone.

In the examples that follow, each entry is paired with its recorded growth.
compound	test.value
Cc1ccc(C2CC(c3nc(-c4ccc(Cl)cc4)oc3C)=NN2C(=O)c2ccncc2)cc1 (stereo unspecified)	72.3
COc1ccc(/C(C)=C(/c2ccc(OCCCN(C)C)cc2)c2ccc(OC(=O)c3ccccc3)cc2)cc1	88.7
CSc1nc(C)c([N+](=O)[O-])c(N)n1	98
CC(=O)Oc1ccc(OC(C)=O)c2ccccc12	78
CNCc1cccc2c1OCCOCCOCCNS(=O)(=O)c1ccc(cc1)-c1cnc(N)c(n1)C(=O)N2	23.2

Next compound, growth to be filled in.
In plain terms, "Cc1cccc(N2CCC(=O)NC2=S)c1" has a documented growth of 96.4

* * *

- Test system: ACHN renal
- method.description: NCI-60 one-dose screen, 48 h
- condition.label: 10 µM unless noted
Compounds without any hit were thinned out: in the full panel of roughly 83,000, 20% have a hit. Calls of active or inactive are those of the source. Rule for the calls: active = growth percent below 10; inactive = the rest.
Field 'call' accepts active, inactive

compound	class.assignment
C=C1C(=O)O[C@H]2[C@H]1CC/C(Cn1cc(CCC)nn1)=C\CC[C@@]1(C)O[C@@H]21	active
COC(=O)c1c2c(c(C)[n+]([O-])c1C)C(=O)C(NCc1ccc(OC)cc1)=CC2=O	inactive
Nc1ncnc2c1N=C(c1ccc3c(c1)OCO3)CC(c1cccc(Nc3ccnc4cc(C(F)(F)F)ccc34)c1)N2 (stereo not drawn)	inactive

# lookup: test call for CCN1C(=O)N(CC)C2C1NN=c1s/c(=C3\C(=O)N(CC(C)C)c4ccccc43)c(=O)n12 (stereo not drawn)
inactive

# lookup: test call for "N#CSc1c[nH]c2cccc(/C=C/C(=O)/C=C(O)/C=C/c3cccc4[nH]cc(SC#N)c34)c12"
active

# lookup: test call for "C=C1C(=O)O[C@H]2[C@H]1CC/C(COC(=O)/C=C\C(=O)NCc1ccc(Cn3c(=O)sn(CCCCC)c3=O)cc1)=C\CC[C@@]1(C)O[C@@H]21"
inactive

# lookup: test call for "O=C1/C(=C/c2ccccn2)NC(=S)N1c1ccccc1Cl"
inactive

# lookup: test call for "COc1ccc(Nc2ncccc2/C=C/C(=O)c2cc(OC)c(OC)c(OC)c2)cc1"
active

* * *

- Tested on: COLO 205 colon
- method.description: NCI-60 one-dose screen, 48 h (100 = growth as untreated, 0 = no growth, -100 = all killed)
- condition.label: 10 µM unless noted
Compounds without any hit were thinned out: in the full panel of roughly 83,000, 20% have a hit.
measurement.type: growth (%)
Express the result in % but write the number alone.

In the examples that follow, each entry is paired with its recorded growth.
molecule	measured.on	growth [%]
CCn1c(-c2cc3c([nH]c4ccccc43)c(-c3cccc(O)c3)n2)n[nH]c1=S	COLO 205 colon	92.5
CC/C=C\CCC/C=C1/C(=O)C=C[C@@H]1C/C=C\CCCC(=O)OC	COLO 205 colon	49.7
C=C(C)[C@@H]1CC[C@]2(C(N)=O)CC[C@]3(C)[C@H](CC[C@@H]4[C@@]5(C)CC[C@H](OCCC#N)C(C)(C)[C@@H]5CC[C@]43C)[C@@H]12	COLO 205 colon	86.1

In plain terms, "O=C(CCCCCCN1CC(=O)N2[C@H](c3ccc(Br)cc3)c3[nH]c4ccccc4c3C[C@@H]2C1=O)NO" has a documented growth of 38.7

In plain terms, N#Cc1c(-c2ccccc2)nc(SCC(O)CN2CCOCC2)nc1N1CCOCC1 (stereo not drawn) has a documented growth of 81.1

In plain terms, "COc1ccc(/C=C/C(=O)c2cc(OC)c(OC)c(OC)c2)cc1OCC(=O)Nc1nc2ccc(OC(F)(F)F)cc2s1" has a documented growth of 77

In plain terms, CC1=C(C(=O)Nc2ccccc2)C(c2ccc3c(c2)OCO3)NC(=S)N1 (stereo not drawn) has a documented growth of 117

In plain terms, C/C=C(\C)C(=O)N[C@H]1C(O)C[C@]2(C)C3CC[C@@]4(C)C(CC[C@@H]4C(C)N(C)C)C3CCC2C1O (stereo partly drawn) has a documented growth of 29.4
